Below, each entry is listed alongside its reported self-cleavage kobs at 40 uM GlcN6P.
B1: glmS ribozyme (parent)
chain: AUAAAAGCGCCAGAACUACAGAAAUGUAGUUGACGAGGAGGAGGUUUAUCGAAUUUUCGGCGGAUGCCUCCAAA

# Variants of: B1
# protocol_description: self-cleavage kobs at 40 uM GlcN6P; higher = faster cleavage; RNA array
# experimental_setup: with glucosamine-6-phosphate
This sample holds only a part of the variants without activity.

# mutation, self-cleavage kobs at 40 uM GlcN6P
records = [
    ("A14U G37U G63U", "< 1e-05 s⁻¹"),
    ("A15U A52U", "< 1e-05 s⁻¹"),
    ("A12C", "0.000794 s⁻¹"),
    ("A33G C61U", "< 1e-05 s⁻¹"),
    ("G32U U49G A53C", "< 1e-05 s⁻¹"),
    ("A48C C71A", "< 1e-05 s⁻¹"),
    ("C10U G41U U56C C70U", "< 1e-05 s⁻¹"),
    ("G7U C16G G59A", "< 1e-05 s⁻¹"),
    ("A53G G66A", "0.000617 s⁻¹"),
    ("U65A C70U", "0.000142 s⁻¹"),
    ("A12U U45C", "0.000226 s⁻¹"),
    ("U31A C67A", "0.000109 s⁻¹"),
    ("G13C C50G G66C", "3.47e-05 s⁻¹"),
    ("A15C U46A C58U", "< 1e-05 s⁻¹"),
    ("G60C C61A", "< 1e-05 s⁻¹"),
    ("U55A G62A", "< 1e-05 s⁻¹"),
    ("A64C C68G C70G", "< 1e-05 s⁻¹"),
    ("U55A U69A", "7.99e-05 s⁻¹"),
    ("G7C C16G U47A", "< 1e-05 s⁻¹"),
    ("G7C A15U G59C", "< 1e-05 s⁻¹"),
    ("C8U G38C G43A G44C G63U", "< 1e-05 s⁻¹"),
    ("G29C A42U U65C", "< 1e-05 s⁻¹"),
]

Data origin, for the record: the supplement of paper PMC7125110
